These data points were gathered from the array DNA melting data of Ke et al. (doi:10.1101/2024.01.08.574731).

measurement_description: melting temperature; fluorescence melt of hairpins on a sequencing array, two-state fit, raised by 9.35 °C to match UV melts
measurement_conditions: sodium 0.088 M
Assignment: determine reported Tm for the given sequences.
Respond with a number, then the unit of measure.

# count of solved cases: 5
{"columns": ["residues", "measurement"],
 "data": [
  ["GATCAATTAATTGATC ((((((....))))))", "48.8 °C"],
  ["GGGTTAGGAAACTAGCCC (((.(((....))).)))", "49 °C"],
  ["GCTTGGCGAAAGCCCAGC (((.(((....))).)))", "51.2 °C"],
  ["GATCAGCAGCTGATC ((((((...))))))", "48.8 °C"],
  ["GCGTTGGCACGC ((((....))))", "50 °C"]
]}

Now consider a different sequence.
Asked: Field request: Tm | item: GCCTTGCGAAAGCATAGC ((..(((....)))..))
Given back: 50.8 °C

----------
measurement_description: folding enthalpy; higher = less favourable; fluorescence melt of hairpins on a sequencing array, two-state fit
measurement_conditions: sodium 0.088 M
assay_endpoint: folding enthalpy (kcal/mol)
One number for each entry, in kcal/mol.

# count of solved cases: 3
{"columns": ["residues", "unit_annotation", "folding enthalpy"],
 "data": [
  ["GGTACGGCGAAAGCCACC (((..(((....))))))", "kcal/mol", -10.6],
  ["GATCCCCGAAAGGGAATC (((.(((....))).)))", "kcal/mol", -21.8],
  ["GAAGGTGGAAACACCTTC (((((((....)))))))", "kcal/mol", -37.7]
]}

Would you mind giving folding enthalpy for every sequence in the list below?
1. GATCGCTGAGCGATC ((((((...))))))
2. GGTCACTCGAAAGAGACC (((..(((....))))))
3. GACAGAACGAAAGTTGTC (((..(((....))))))
4. GCGTTAGGAAACTAACAC (.(((((....))))).)
5. GACTCCGAAAGGATGTC ((((((....))).)))

Given back:
1. -31
2. -24.1
3. -28.2
4. -16.2
5. -30.7

Would you mind giving folding enthalpy for every sequence in the list below?
1. GCTTATGCGAAAGCAAGC (((..(((....))))))
2. GGGAGGGGAAACCCTCTC (.(((((....))))).)
3. GCGTCTGGAAACGGATGC ((.((.(....).)).))

Given back:
[-16.6, -20.2, -35.5]

----------
measurement_description: folding enthalpy; higher = less favourable; fluorescence melt of hairpins on a sequencing array, two-state fit
measurement_conditions: sodium 0.088 M
Assignment: determine reported folding enthalpy for the given sequences.
Give bare numbers, in kcal/mol.

# count of solved cases: 3
{"columns": ["residues", "assay_endpoint", "unit_annotation", "measurement"],
 "data": [
  ["GATCGGGATTCCGATC ((((((....))))))", "folding enthalpy", "kcal/mol", -39.7],
  ["GCCGACGAAAGTCGAGGC ((((((....)))..)))", "folding enthalpy", "kcal/mol", -16.5],
  ["GCGCACGGAAACGTACGC (((.(((....))).)))", "folding enthalpy", "kcal/mol", -44.3]
]}

Would you mind giving folding enthalpy for every sequence in the list below?
1. GGAGAACGAAAGTTTCC (((.(((....))))))
2. GATCTGACATCAGATC ((((((....))))))
3. GCTCCCGAAAGGGTTAGC ((((((....)))..)))
4. GGGCTCGAAAGAGTTCCC ((((((....)))..)))
5. GCCTGCGGAAACACAGGC (((((.(....).)))))
6. GGCAGTGGAAACGCTGTC (.(((.(....).))).)
7. GGGACCGAAAGGTCGCCC ((((((....)))..)))
8. GCGGAACGAAAGTTGCGC (((.(((....))).)))

Given back:
[-19.7, -33.5, -16.2, -21, -40.8, -23.4, -10.3, -35.6]

----------
Assignment: determine reported folding enthalpy for the given sequences.
measurement_description: folding enthalpy; higher = less favourable; fluorescence melt of hairpins on a sequencing array, two-state fit
measurement_conditions: sodium 0.088 M
Answers are plain numbers, in kcal/mol.

{"columns": ["residues", "folding enthalpy, kcal/mol"],
 "data": [
  ["GGTCAGCGAAAGCTAACC (((.(((....))).)))", -25.6],
  ["GCCGGTCGAAAGACGGC (((.(((....))))))", -30.1],
  ["AGTGTGAAAACACT (((((....)))))", -19.5],
  ["GCGGTACCCCGC ((((....))))", -21.6],
  ["GGAAGAGGAAACTTTTCC ((((.((....)).))))", -15.8]
]}

Would you mind giving folding enthalpy for every sequence in the list below?
1. GGCTATCGAAAGATCGCC (((.(((....))).)))
2. GAGCGTGGAAACGTGCTC ((((..(....)..))))
3. GACCGGCGAAAGCCTGTC (((.(((....))).)))
4. GATTGCCGAAAGGCTATC (((.(((....))).)))
5. GTTCAGGAAACTGAAC ((((((....))))))

Given back:
1. -30.8
2. -19.3
3. -22.3
4. -19.1
5. -36.7

----------
measurement_description: melting temperature; fluorescence melt of hairpins on a sequencing array, two-state fit, raised by 9.35 °C to match UV melts
measurement_conditions: sodium 0.088 M
assay_endpoint: Tm (°C)
Answers are plain numbers, in °C.

{"columns": ["residues", "assay_endpoint", "unit_annotation", "measurement"],
 "data": [
  ["CGATGCGGAAACGCTCG (((.(((....))))))", "Tm", "°C", 50]
]}

Would you mind giving Tm for every sequence in the list below?
1. GTTCGAGGAAACTCGAGC (.(((((....))))).)
2. GCAGGCGAAAGCCCCTGC ((((((....)))..)))
3. CGCTCGGAAACGATTGCG ((((((....)))..)))
4. GATCAGTAGACTGATC ((((((....))))))
5. GTTTAGCGAAAGCTGAAC (((.(((....))).)))
6. GGATGCGCGAAAGCGTCC (((..(((....))))))

Given back:
1: 49.8; 2: 40.6; 3: 39.8; 4: 51.5; 5: 51.3; 6: 41

----------
measurement_description: folding enthalpy; higher = less favourable; fluorescence melt of hairpins on a sequencing array, two-state fit
measurement_conditions: sodium 0.088 M
assay_endpoint: folding enthalpy (kcal/mol)
One number for each entry, in kcal/mol.

# count of solved cases: 5
{"columns": ["residues", "folding enthalpy (kcal/mol)"],
 "data": [
  ["CGAGCGGAAACGCCTCG ((((((....))).)))", -29.6],
  ["CGGTAGCGGAAACGCCCG (((..(((....))))))", -23.4],
  ["GCGTTTATACGC ((((....))))", -27.7],
  ["GTAACTGGAAACAGCTAC (((.(((....))).)))", -30.1],
  ["GCCACGCGAAAGCATTGC ((.(.((....)).).))", -11.6]
]}

Would you mind giving folding enthalpy for every sequence in the list below?
1. GACATGGGAAACTGTGTC ((((..(....)..))))
2. GATCACTTAGTGATC ((((((...))))))
3. GCATTGCGAAAGCGACGC ((.(.((....)).).))
4. GCAACCGGAAACGGTTAC (.(((((....))))).)
5. GCGCGCGAAAGCGGCCGC ((((((....)))..)))
6. GCGGGGCCGAAAGGCCGC (((..(((....))))))
7. GCGTTCTCGAAAGAGCGC (((..(((....))))))
8. GTACAGGCGAAAGCCTAC (((..(((....))))))

Given back:
1: -28.2; 2: -37; 3: -16.6; 4: -12.4; 5: -15.3; 6: -10.2; 7: -34.3; 8: -8.61

Would you mind giving folding enthalpy for every sequence in the list below?
1. GCTTGACCGAAAGGTAGC (((..(((....))))))
2. GCTGACGAAAGTCCTAGC ((((((....)))..)))
3. GTCTCCGAAAGGAGAGAC ((((((....)))..)))

Given back:
[-21.4, -17, -11.4]

Would you mind giving folding enthalpy for every sequence in the list below?
1. GATTACGAAAGTAGATC ((((((....))).)))
2. GGGTCCCGAAAGGGTCCC (((.(((....))).)))
3. GGGCAAGGAAACTTGCTC (.(((((....))))).)

Given back:
1. -19
2. -31
3. -27.9

Would you mind giving folding enthalpy for every sequence in the list below?
1. GCAATAGAAATATTGC ((((((....))))))
2. GATCACATAGGTGATC ((((((....))))))
3. GATGGCGAAAGCCGATC ((((((....))).)))
4. GATCTCAGACGAGATC ((((((....))))))
5. GATCATTTCATGATC ((((((...))))))

Given back:
1: -26.5; 2: -39.1; 3: -15.4; 4: -36.9; 5: -40.6
